Test system: 349418-098-R-PDC complex spheroid viability
Test: Anticancer human tumor 349418-098-R-PDC patient-derived lung adenocarcinoma cell line growth inhibition [RAS]; active = viability on the fitted dose curve at most 10% of control; inactive = the rest
Settings: second compound 0.000949 µM; first compound 0.0316 µM
Respond only with the outcome that fits, drawn from active, inactive

CCC(CC)c1cc(NC2CCC(N)C2)n2nccc2n1 (configuration not stated) + CCn1c(-c2cccnc2C(C)OC)c2c3cc(ccc31)N1CCOC(CC(NC(=O)C(C(C)C)N(C)C(=O)C3(F)CCN(C(=O)C#CC(C)(C)N(C)C)CC3)C(=O)N3CCCC(N3)C(=O)OCC(C)(C)C2)C1 : inactive

Shifting focus to the compound that follows.
Incoming: // param item: Nc1ccn(C2OC(CO)C(O)C2(F)F)c(=O)n1 (configuration not stated) + CCn1c(-c2cccnc2C(C)OC)c2c3cc(ccc31)N1CCOC(CC(NC(=O)C(C(C)C)N(C)C(=O)C3(F)CCN(C(=O)C#CC(C)(C)N(C)C)CC3)C(=O)N3CCCC(N3)C(=O)OCC(C)(C)C2)C1 ; yields the recorded call
Outgoing: active

---

viability, T/C values, listed per item
System: 349418-098-R-PDC complex spheroid viability
Experiment: Anticancer human tumor 349418-098-R-PDC cell line growth inhibition [RAS];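 note: spheroids exposed to compound for seven days before viability readout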
Conditions: second compound 0.316 µM; first compound 10 µM; stronger effect = lower value
Dear colleague, please return just the value in %, with no unit written.

Cc1nc(N2CCC3(CC2)COC(C)C3N)c(CO)nc1Sc1ccnc(N)c1Cl (stereo unspecified) + C#Cc1c(F)ccc2cc(O)cc(-c3ncc4c(N5CC6CCC(C5)N6)nc(OCC56CCCN5CC(F)C6)nc4c3F)c12 : 67.3
Cc1nc(N2CCC3(CC2)COC(C)C3N)c(CO)nc1Sc1ccnc(N)c1Cl (stereo unspecified) + C=CC(=O)N1CCN(c2nc(OCC3CCCN3C)nc3c(F)c(-c4nc(N)cc(C)c4C(F)(F)F)c(Cl)cc23)C(C)C1 : 87.1
CC(Nc1ccc2c(c1)OCCn1cc(N3C(=O)OCC3C(F)F)nc1-2)C(N)=O (stereo unspecified) + C=CC(=O)N1CCN(c2nc(OCC3CCCN3C)nc3c(F)c(-c4nc(N)cc(C)c4C(F)(F)F)c(Cl)cc23)C(C)C1 : 10.7
CCC(CC)c1cc(NC2CCC(N)C2)n2nccc2n1 (stereo unspecified) + C=CC(=O)N1CCN(c2nc(OCC3CCCN3C)nc3c(F)c(-c4nc(N)cc(C)c4C(F)(F)F)c(Cl)cc23)C(C)C1 : 2.54

// molecule CC(Nc1ccc2c(c1)OCCn1cc(N3C(=O)OCC3C(F)F)nc1-2)C(N)=O (stereo unspecified) + C#Cc1c(F)ccc2cc(O)cc(-c3ncc4c(N5CC6CCC(C5)N6)nc(OCC56CCCN5CC(F)C6)nc4c3F)c12 , assay 349418-098-R-PDC complex spheroid viability, viability, T/C value: 13.7

I looked up C[C@@H](NC(=O)c1ncnc(N)c1Cl)c1ncc(C(=O)Nc2cc(C(F)(F)F)c(Cl)cn2)s1 + C=CC(=O)N1CCN(c2nc(OCC3CCCN3C)nc3c(F)c(-c4nc(N)cc(C)c4C(F)(F)F)c(Cl)cc23)C(C)C1 and its viability, T/C for 349418-098-R-PDC complex spheroid viability was 31.2

Value (viability, T/C, 349418-098-R-PDC complex spheroid viability) for record CC(=O)OC12COC1CC(O)C1(C)C(=O)C(O)C3=C(C)C(OC(=O)C(O)C(NC(=O)OC(C)(C)C)c4ccccc4)CC(O)(C(OC(=O)c4ccccc4)C21)C3(C)C (stereo unspecified) + C#Cc1c(F)ccc2cc(O)cc(-c3ncc4c(N5CC6CCC(C5)N6)nc(OCC56CCCN5CC(F)C6)nc4c3F)c12 = 24.5

Value (viability, T/C, 349418-098-R-PDC complex spheroid viability) for record CC1(O)CCCC1n1c(=O)c(C(F)F)cc2cnc(NC3CCN(S(C)(=O)=O)CC3)nc21 (stereo unspecified) + C=CC(=O)N1CCN(c2nc(OCC3CCCN3C)nc3c(F)c(-c4nc(N)cc(C)c4C(F)(F)F)c(Cl)cc23)C(C)C1 = 3.81

So the reported viability, T/C for CC(=O)OC12COC1CC(O)C1(C)C(=O)C(O)C3=C(C)C(OC(=O)C(O)C(NC(=O)OC(C)(C)C)c4ccccc4)CC(O)(C(OC(=O)c4ccccc4)C21)C3(C)C (stereo unspecified) + C=CC(=O)N1CCN(c2nc(OCC3CCCN3C)nc3c(F)c(-c4nc(N)cc(C)c4C(F)(F)F)c(Cl)cc23)C(C)C1 , on 349418-098-R-PDC complex spheroid viability, turned out to be 25.6

With 349418-098-R-PDC complex spheroid viability as the test system, CC(C)NCC(C(=O)N1CCN(c2ncnc3c2C(C)CC3O)CC1)c1ccc(Cl)cc1 (stereo unspecified) + C#Cc1c(F)ccc2cc(O)cc(-c3ncc4c(N5CC6CCC(C5)N6)nc(OCC56CCCN5CC(F)C6)nc4c3F)c12 showed viability, T/C of 8.74

Item NC1c2ccccc2OC12CCN(c1cnc3c(N4CCCc5ncccc54)n[nH]c3n1)CC2 (stereo unspecified) + C=CC(=O)N1CCN(c2nc(OCC3CCCN3C)nc3c(F)c(-c4nc(N)cc(C)c4C(F)(F)F)c(Cl)cc23)C(C)C1 ; assay system 349418-098-R-PDC complex spheroid viability; viability, T/C reported as 64

---

A collection of compounds and their measured viability, T/C
Tested on: 349418-098-R-PDC complex spheroid viability
Assay: Anticancer human tumor 349418-098-R-PDC cell line growth inhibition [RAS];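 note: spheroids exposed to compound for seven days before viability readout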
Settings: second compound 0.003 µM; first compound 10 µM; stronger effect = lower value

Below: 3 compounds and their reported viability, T/C.
CC(Nc1ccc2c(c1)OCCn1cc(N3C(=O)OCC3C(F)F)nc1-2)C(N)=O (centres undefined) + CCn1c(-c2cccnc2C(C)OC)c2c3cc(ccc31)N1CCOC(CC(NC(=O)C(C(C)C)N(C)C(=O)C3(F)CCN(C(=O)C#CC(C)(C)N(C)C)CC3)C(=O)N3CCCC(N3)C(=O)OCC(C)(C)C2)C1 : 12.9%
CC(=O)OC12COC1CC(O)C1(C)C(=O)C(O)C3=C(C)C(OC(=O)C(O)C(NC(=O)OC(C)(C)C)c4ccccc4)CC(O)(C(OC(=O)c4ccccc4)C21)C3(C)C (centres undefined) + CCn1c(-c2cc(N3CCN(C)CC3)cnc2C(C)OC)c2c3cc(ccc31)-c1csc(n1)CC(NC(=O)C1CC1C)C(=O)N1CCCC(N1)C(=O)OCC(C)(C)C2 : 22.9%
CC(C)NCC(C(=O)N1CCN(c2ncnc3c2C(C)CC3O)CC1)c1ccc(Cl)cc1 (centres undefined) + CCn1c(-c2cc(N3CCN(C)CC3)cnc2C(C)OC)c2c3cc(ccc31)-c1csc(n1)CC(NC(=O)C1CC1C)C(=O)N1CCCC(N1)C(=O)OCC(C)(C)C2 : 15.1%

In the following, a different compound is considered.
Short answer for NC1c2ccccc2OC12CCN(c1cnc3c(N4CCCc5ncccc54)n[nH]c3n1)CC2 (centres undefined) + CCn1c(-c2cc(N3CCN(C)CC3)cnc2C(C)OC)c2c3cc(ccc31)-c1csc(n1)CC(NC(=O)C1CC1C)C(=O)N1CCCC(N1)C(=O)OCC(C)(C)C2 : viability, T/C was 76.8%

---

System: 349418-098-R-PDC complex spheroid viability
Test: Anticancer human tumor 349418-098-R-PDC cell line growth inhibition [RAS]; active = viability on the fitted dose curve at most 10% of control; inactive = the rest;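 note: spheroids exposed to compound for seven days before viability readout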
Details: second compound 0.03 µM; first compound 0.1 µM
Result category, one only: 1 (yes) (active), 0 (no) (inactive)

A selection of reference data follows.
C=CC(=O)Nc1cc(Nc2nccc(-c3cn(C)c4ccccc34)n2)c(OC)cc1N(C)CCN(C)C + CCn1c(-c2cccnc2C(C)OC)c2c3cc(ccc31)N1CCOC(CC(NC(=O)C(C(C)C)N(C)C(=O)C3(F)CCN(C(=O)C#CC(C)(C)N(C)C)CC3)C(=O)N3CCCC(N3)C(=O)OCC(C)(C)C2)C1 : 0 (no)
Nc1ccn(C2OC(CO)C(O)C2(F)F)c(=O)n1 (centres undefined) + CCn1c(-c2cccnc2C(C)OC)c2c3cc(ccc31)N1CCOC(CC(NC(=O)C(C(C)C)N(C)C(=O)C3(F)CCN(C(=O)C#CC(C)(C)N(C)C)CC3)C(=O)N3CCCC(N3)C(=O)OCC(C)(C)C2)C1 : 1 (yes)
CC(Nc1ccc2c(c1)OCCn1cc(N3C(=O)OCC3C(F)F)nc1-2)C(N)=O (centres undefined) + CCn1c(-c2cc(N3CCN(C)CC3)cnc2C(C)OC)c2c3cc(ccc31)-c1csc(n1)CC(NC(=O)C1CC1C)C(=O)N1CCCC(N1)C(=O)OCC(C)(C)C2 : 0 (no)

Switching to the query record.
Incoming: Check the results log: what was the call for CCN1CCN(Cc2ccc(Nc3ncc(F)c(-c4cc(F)c5nc(C)n(C(C)C)c5c4)n3)nc2)CC1 + CCn1c(-c2cc(N3CCN(C)CC3)cnc2C(C)OC)c2c3cc(ccc31)-c1csc(n1)CC(NC(=O)C1CC1C)C(=O)N1CCCC(N1)C(=O)OCC(C)(C)C2 ?
Outgoing: 0 (no)
